Target: BLMcore G1120R (Homo sapiens, UniProt P54132 636-1298, G1120R)
Sequence (P54132 636-1298 G1120R): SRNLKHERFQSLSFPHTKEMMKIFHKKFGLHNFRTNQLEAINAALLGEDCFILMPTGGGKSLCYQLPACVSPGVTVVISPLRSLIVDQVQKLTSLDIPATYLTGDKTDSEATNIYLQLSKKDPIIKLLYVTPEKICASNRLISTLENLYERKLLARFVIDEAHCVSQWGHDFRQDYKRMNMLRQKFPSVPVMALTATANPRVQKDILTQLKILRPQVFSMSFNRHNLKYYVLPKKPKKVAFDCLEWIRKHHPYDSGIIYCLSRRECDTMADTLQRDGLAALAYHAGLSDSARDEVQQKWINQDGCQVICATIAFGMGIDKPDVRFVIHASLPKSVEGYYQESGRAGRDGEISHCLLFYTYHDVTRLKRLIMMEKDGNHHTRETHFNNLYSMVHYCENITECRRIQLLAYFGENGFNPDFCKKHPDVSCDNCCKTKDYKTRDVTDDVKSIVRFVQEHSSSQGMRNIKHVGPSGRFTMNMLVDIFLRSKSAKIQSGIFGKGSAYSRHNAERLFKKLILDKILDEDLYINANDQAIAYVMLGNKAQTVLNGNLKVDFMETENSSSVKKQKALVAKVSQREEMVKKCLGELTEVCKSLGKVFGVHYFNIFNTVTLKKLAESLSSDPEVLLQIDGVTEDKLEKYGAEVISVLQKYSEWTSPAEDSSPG
Assay: EMSA; 5 mM MgCl2; smear; estimated apparent KD; 50 mM Tris-HCl pH 7.5, 50 mM KCl, 5 mM MgCl2, 1 mM DTT, 0.1 mg/mL BSA, 40 nM DNA, 30 min room temperature; 5% gel in TBE + 100 mM KCl at 4 C
Conditions: protein: recombinant; (HisTrap purified); label: 3'-FAM; intramolecular G4 (folded in 100 mM KCl) with 3' T-rich ssDNA tail
pKd: −log10 of the molar value.
Endpoint: pKd

Kindly note the recorded pKd for GGGTTAGGGTTAGGGTTAGGGTTTTTTTTTT (structured_DNA) [G4 DNA with 3' ssDNA overhang (FAM-oRC96)] , which is ~6.60
